Values compiled from ChEMBL document CHEMBL1201862.

Consider the following compounds; for each one, report its GI50.
Test system: UACC-257
Test: NCI tumour cell line growth inhibition, 48 h
The source made the active and inactive calls. No stated cut-off is given here; in the data, active = GI50 up to about 1.1 µM and inactive = higher.

Problem: Please look up its GI50: O=C(/C=C/c1cccc([N+](=O)[O-])c1)c1cccnc1
Solution: 23.9 µM (inactive)

Problem: Moving on to the next compound: O=C(CC12C3C4C1C1C2C3C41CC(=O)NO)NO (stereo unspecified)
Solution: 21.8 µM (inactive)

Problem: Moving on to the next compound: CCc1nc2cc(/N=N/c3c(O)ccc4ccccc34)ccc2[nH]1
Solution: 14.5 µM (inactive)

Problem: Moving on to the next compound: Cc1ccc(-c2cc(O)c3nc4ccccc4n3c2)cc1
Solution: > 100 µM (inactive)

Problem: Moving on to the next compound: CN/N=C(\C)CC(=O)Nc1cccc(Cl)c1C
Solution: > 100 µM (inactive)

Problem: Moving on to the next compound: O=C1NC2(CCCCC2)C2=C1CCCCC2
Solution: > 100 µM (inactive)

Problem: Moving on to the next compound: COc1ccc(C(OC(C)=O)C2C(=C(C#N)C#N)c3ccccc3C2=C(C#N)C#N)cc1 (stereo unspecified)
Solution: > 100 µM (inactive)

Problem: Moving on to the next compound: COc1ccccc1/N=C1\SCCN1C(=S)Nc1ccc(S(=O)(=O)/N=C/N(C)C)cc1
Solution: 36.1 µM (inactive)

Problem: Moving on to the next compound: Cc1ccc(C)c(COCCOCn2ccc(N)nc2=O)c1
Solution: > 100 µM (inactive)

Problem: Moving on to the next compound: O=C1OC(C(O)C(O)C(O)CO)C(O)C1O (stereo unspecified)
Solution: > 100 µM (inactive)

Problem: Moving on to the next compound: COc1cc(C2c3cc4c(cc3OC(NNS(=O)(=O)c3ccc(C)cc3)C2C)OCO4)cc(OC)c1O (stereo unspecified)
Solution: 5.06 µM (inactive)
